assay: Biodistribution in ICR mice after an iv injection; type: in vivo; settings: Muscle, 30 min after iv injection
OBSERVED PROPERTY: % dose/organ (% dose/organ)

Please review the following examples before continuing.
# COMPOUND, % dose/organ / % dose/organ
rows = [
    ("CNc1ccc(-c2ccc3nc(OCCOCCOCC[18F])ccc3c2)cc1 [[^18F]34a]", 14.5),
    ("CNc1ccc(-c2ccc3cc(OCCOCCOCCF)ccc3c2)cc1", 12.7),
]

[a] CN(C)c1ccc(-c2ccc3nc(OCCOCCOCC[18F])ccc3c2)cc1 [[^18F]32a]
[b] CNc1ccc2cc(-c3ccc(OCCOCCOCC[18F])cc3)ccc2c1 [[^18F]19a]
Looking at a and b , which one comes out lower in % dose/organ terms? Write down the label attached to your selection. b
